# Tested on: 817829-284-R-J1-PDC complex spheroids, viability
# protocol-details: Anticancer human tumor 817829-284-R-J1-PDC patient-derived colon adenocarcinoma cell line growth inhibition [GQUAD]; active means viability on the fitted dose curve at most 10% of control; inactive means the rest
# experimental-context: second compound 1 µM; first compound 3.16 µM
Thanks in advance; please answer with one of these: 1 (yes) = active, 0 (no) = inactive

| compound | measured-target | assigned-category |
| --- | --- | --- |
| CC1COCCN1c1cc(C2(O)CC3CCC(C2)O3)c2cnn(-c3ccn[nH]3)c2n1 (centres undefined) + CN(C)c1ccc(Nc2c3ccc(NC(=O)CCN4CCCC4)cc3nc3cc(NC(=O)CCN4CCCC4)ccc23)cc1 | 817829-284-R-J1-PDC complex spheroids, viability | 1 (yes) |

Task: Each compound tested received a call. Report the one for COc1ccc([C@@H](O)c2cc(-c3ncnc4cc(N5CCOCC5)ccc34)c(F)cc2Cl)nn1 + CN(C)c1ccc(Nc2c3ccc(NC(=O)CCN4CCCC4)cc3nc3cc(NC(=O)CCN4CCCC4)ccc23)cc1 .
Result: 0 (no)

Task: Each compound tested received a call. Report the one for CCCS(=O)(=O)Nc1ccc(F)c(C(=O)c2c[nH]c3ncc(-c4ccc(Cl)cc4)cc23)c1F + Cc1cnc(CNC(=O)c2c(=O)c3ccc(N4CCCN(C)CC4)nc3n3c2sc2ccccc23)cn1 .
Result: 0 (no)

Task: Each compound tested received a call. Report the one for CC(C)n1c(=O)n(C)c2cnc3cc(F)c(-c4ccc(OCCCN5CCCCC5)nc4)cc3c21 + CN(C)c1ccc(Nc2c3ccc(NC(=O)CCN4CCCC4)cc3nc3cc(NC(=O)CCN4CCCC4)ccc23)cc1 .
Result: 0 (no)

----------
# Test system: 817829-284-R-J1-PDC complex spheroids, viability
# protocol-details: Anticancer human tumor 817829-284-R-J1-PDC cell line growth inhibition [GQUAD];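 further: spheroids exposed to agents for 7 days before readout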;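 on viability, T/C: percent viability relative to DMSO vehicle control taken as 100%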
# experimental-context: second compound 1 µM; first compound 3.16 µM; stronger effect = lower value
readout-type: viability, T/C (%)
# unit: % | format: bare number

Illustrative cases are given below, each with its answer.
| compound | readout-type | readout-units | numeric-value |
| --- | --- | --- | --- |
| CC(C)(O)C1CCC(Nc2ccc3ncc(-c4cccc(C(F)(F)F)c4)n3n2)CC1 (stereo unspecified) + CN(C)c1ccc(Nc2c3ccc(NC(=O)CCN4CCCC4)cc3nc3cc(NC(=O)CCN4CCCC4)ccc23)cc1 | viability, T/C | % | 28.9 |
| Cc1cccc(N(C)C(=O)C2C(O)CCN2c2nc(C)cc(C(F)(F)F)c2C#N)c1 (stereo unspecified) + Cc1cnc(CNC(=O)c2c(=O)c3ccc(N4CCCN(C)CC4)nc3n3c2sc2ccccc23)cn1 | viability, T/C | % | 22.9 |
| CC(C)(O)C1CCC(Nc2ccc3ncc(-c4cccc(C(F)(F)F)c4)n3n2)CC1 (stereo unspecified) + Cc1[nH]c2ccc(F)cc2c1-c1nc2c3cccnc3c3ncccc3c2[nH]1 | viability, T/C | % | 8.2 |
| Cc1cccc(N(C)C(=O)C2C(O)CCN2c2nc(C)cc(C(F)(F)F)c2C#N)c1 (stereo unspecified) + Cc1[nH]c2ccc(F)cc2c1-c1nc2c3cccnc3c3ncccc3c2[nH]1 | viability, T/C | % | 100 |
| CC(=O)O[C@H]1C(=O)[C@@]2(C)[C@H]([C@H](OC(=O)c3ccccc3)[C@]3(O)C[C@H](OC(=O)[C@H](O)[C@@H](NC(=O)c4ccccc4)c4ccccc4)C(C)=C1C3(C)C)[C@]1(OC(C)=O)CO[C@@H]1C[C@@H]2O + CN(C)c1ccc(Nc2c3ccc(NC(=O)CCN4CCCC4)cc3nc3cc(NC(=O)CCN4CCCC4)ccc23)cc1 | viability, T/C | % | 4.82 |
| CC1COCCN1c1cc(C2(O)CC3CCC(C2)O3)c2cnn(-c3ccn[nH]3)c2n1 (stereo unspecified) + Cc1cnc(CNC(=O)c2c(=O)c3ccc(N4CCCN(C)CC4)nc3n3c2sc2ccccc23)cn1 | viability, T/C | % | 3.93 |

Task: Give recorded viability, T/C with 817829-284-R-J1-PDC complex spheroids, viability for the following compound: Nc1ccn(C2OC(CO)C(O)C2(F)F)c(=O)n1 (stereo unspecified) + CN(C)c1ccc(Nc2c3ccc(NC(=O)CCN4CCCC4)cc3nc3cc(NC(=O)CCN4CCCC4)ccc23)cc1
Result: 6.53

Task: Give recorded viability, T/C with 817829-284-R-J1-PDC complex spheroids, viability for the following compound: C#Cc1c(F)ccc2cc(O)cc(-c3ncc4c(N5CC6CCC(C5)N6)nc(OCC56CCCN5CC(F)C6)nc4c3F)c12 (stereo unspecified) + Cc1[nH]c2ccc(F)cc2c1-c1nc2c3cccnc3c3ncccc3c2[nH]1
Result: 94.5

Task: Give recorded viability, T/C with 817829-284-R-J1-PDC complex spheroids, viability for the following compound: O=C(c1cc(Cc2n[nH]c(=O)c3ccccc23)ccc1F)N1CCN(C(=O)C2CC2)CC1 + Cc1cnc(CNC(=O)c2c(=O)c3ccc(N4CCCN(C)CC4)nc3n3c2sc2ccccc23)cn1
Result: 23.1

Task: Give recorded viability, T/C with 817829-284-R-J1-PDC complex spheroids, viability for the following compound: CC1COCCN1c1cc(-c2ccnn2C)c2ccnc(-c3ccn[nH]3)c2n1 (stereo unspecified) + Cc1[nH]c2ccc(F)cc2c1-c1nc2c3cccnc3c3ncccc3c2[nH]1
Result: 5.62

Task: Give recorded viability, T/C with 817829-284-R-J1-PDC complex spheroids, viability for the following compound: O=c1[nH]cc(F)c(=O)[nH]1 + CN(C)c1ccc(Nc2c3ccc(NC(=O)CCN4CCCC4)cc3nc3cc(NC(=O)CCN4CCCC4)ccc23)cc1
Result: 45.7

----------
# System: 817829-284-R-J1-PDC complex spheroids, viability
# protocol-details: Anticancer human tumor 817829-284-R-J1-PDC cell line growth inhibition [GQUAD];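 further: spheroids exposed to agents for 7 days before readout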
# experimental-context: curve of first compound; second compound 1 µM
In this section we review reported IC50 values for a set of compounds.

Illustrative cases are given below, each with its answer.
| compound | measured-target | IC50 |
| --- | --- | --- |
| C=CCn1c(=O)c2cnc(Nc3ccc(N4CCN(C)CC4)cc3)nc2n1-c1cccc(C(C)(C)O)n1 + Cc1cnc(CNC(=O)c2c(=O)c3ccc(N4CCCN(C)CC4)nc3n3c2sc2ccccc23)cn1 | 817829-284-R-J1-PDC complex spheroids, viability | < 31.6 nM |
| C=CCn1c(=O)c2cnc(Nc3ccc(N4CCN(C)CC4)cc3)nc2n1-c1cccc(C(C)(C)O)n1 + CN(C)c1ccc(Nc2c3ccc(NC(=O)CCN4CCCC4)cc3nc3cc(NC(=O)CCN4CCCC4)ccc23)cc1 | 817829-284-R-J1-PDC complex spheroids, viability | 231 nM |
| CC[C@@]1(O)C(=O)OCc2c1cc1n(c2=O)Cc2cc3c(CN(C)C)c(O)ccc3nc2-1 + Cc1[nH]c2ccc(F)cc2c1-c1nc2c3cccnc3c3ncccc3c2[nH]1 | 817829-284-R-J1-PDC complex spheroids, viability | 52.2 nM |

Task: Dear colleague, I am looking for the recorded IC50 of the following compound: CCCS(=O)(=O)Nc1ccc(F)c(C(=O)c2c[nH]c3ncc(-c4ccc(Cl)cc4)cc23)c1F + CN(C)c1ccc(Nc2c3ccc(NC(=O)CCN4CCCC4)cc3nc3cc(NC(=O)CCN4CCCC4)ccc23)cc1
Result: 5680 nM

Task: Dear colleague, I am looking for the recorded IC50 of the following compound: O=C(c1cc(Cc2n[nH]c(=O)c3ccccc23)ccc1F)N1CCN(C(=O)C2CC2)CC1 + Cc1cnc(CNC(=O)c2c(=O)c3ccc(N4CCCN(C)CC4)nc3n3c2sc2ccccc23)cn1
Result: < 31.6 nM

Task: Dear colleague, I am looking for the recorded IC50 of the following compound: CCc1c2c(nc3ccc(O)cc13)-c1cc3c(c(=O)n1C2)COC(=O)[C@]3(O)CC + Cc1[nH]c2ccc(F)cc2c1-c1nc2c3cccnc3c3ncccc3c2[nH]1
Result: < 0.999 nM

----------
# Tested on: 817829-284-R-J1-PDC complex spheroids, viability
# protocol-details: Anticancer human tumor 817829-284-R-J1-PDC cell line growth inhibition [GQUAD]; active means viability on the fitted dose curve at most 10% of control; inactive means the rest;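 further: spheroids exposed to agents for 7 days before readout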
# experimental-context: second compound 10 µM; first compound 0.0316 µM
Thanks in advance; please answer with one of these: true = active, false = inactive

Consider the following illustrative entries.
| compound | assigned-category |
| --- | --- |
| COc1cccc2c1C(=O)c1c(O)c3c(c(O)c1C2=O)CC(O)(C(=O)CO)CC3OC1CC(N)C(O)C(C)O1 (stereo not drawn) + CN(C)c1ccc(Nc2c3ccc(NC(=O)CCN4CCCC4)cc3nc3cc(NC(=O)CCN4CCCC4)ccc23)cc1 | false |
| C=CCn1c(=O)c2cnc(Nc3ccc(N4CCN(C)CC4)cc3)nc2n1-c1cccc(C(C)(C)O)n1 + Cc1[nH]c2ccc(F)cc2c1-c1nc2c3cccnc3c3ncccc3c2[nH]1 | false |

We next turn to a different compound, shown below.
Task: Each compound tested received a call. Report the one for CC(=O)O[C@H]1C(=O)[C@@]2(C)[C@H]([C@H](OC(=O)c3ccccc3)[C@]3(O)C[C@H](OC(=O)[C@H](O)[C@@H](NC(=O)c4ccccc4)c4ccccc4)C(C)=C1C3(C)C)[C@]1(OC(C)=O)CO[C@@H]1C[C@@H]2O + Cc1cnc(CNC(=O)c2c(=O)c3ccc(N4CCCN(C)CC4)nc3n3c2sc2ccccc23)cn1 .
Result: true
